B1: TPR 5TU (parent)
chain: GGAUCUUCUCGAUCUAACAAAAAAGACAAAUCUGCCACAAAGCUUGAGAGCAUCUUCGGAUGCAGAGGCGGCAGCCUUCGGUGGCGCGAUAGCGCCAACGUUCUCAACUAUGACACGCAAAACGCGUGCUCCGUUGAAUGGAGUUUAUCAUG

# Variants of: B1
# EXPERIMENTAL PROTOCOL: polymerase ribozyme fitness, log enrichment relative to wild type (log ratio); higher = more active; in vitro selection for triplet polymerase activity
Variants at the floor of the assay were thinned out.
RECORDED ENDPOINT: polymerase ribozyme fitness (log ratio)

[
  {
    "VARIANT ID": "A24U G25A A39G A60U G83C",
    "polymerase ribozyme fitness (log ratio)": "≤ -4.2"
  }
]

For this variant ( C5A A17U G83U C87G ), measured polymerase ribozyme fitness (log ratio) is ≤ -4.2

Reported polymerase ribozyme fitness (log ratio) of C27A G59A C85U U134A : ≤ -4.2

Reported polymerase ribozyme fitness (log ratio) ( U6G C10G A21G G71A C76U C85A ) = ≤ -4.2

Origin of measurements: the RNAGym collection of RNA variant scans (doi:10.1073/pnas.2313332121)
